Measured pEC50 accompanies every entry in the list below.
experimental-target: human F508del-CFTR (Homo sapiens, UniProt P13569, DEL508-508)
Sequence (P13569 with tags, fused parts or gaps DEL508-508): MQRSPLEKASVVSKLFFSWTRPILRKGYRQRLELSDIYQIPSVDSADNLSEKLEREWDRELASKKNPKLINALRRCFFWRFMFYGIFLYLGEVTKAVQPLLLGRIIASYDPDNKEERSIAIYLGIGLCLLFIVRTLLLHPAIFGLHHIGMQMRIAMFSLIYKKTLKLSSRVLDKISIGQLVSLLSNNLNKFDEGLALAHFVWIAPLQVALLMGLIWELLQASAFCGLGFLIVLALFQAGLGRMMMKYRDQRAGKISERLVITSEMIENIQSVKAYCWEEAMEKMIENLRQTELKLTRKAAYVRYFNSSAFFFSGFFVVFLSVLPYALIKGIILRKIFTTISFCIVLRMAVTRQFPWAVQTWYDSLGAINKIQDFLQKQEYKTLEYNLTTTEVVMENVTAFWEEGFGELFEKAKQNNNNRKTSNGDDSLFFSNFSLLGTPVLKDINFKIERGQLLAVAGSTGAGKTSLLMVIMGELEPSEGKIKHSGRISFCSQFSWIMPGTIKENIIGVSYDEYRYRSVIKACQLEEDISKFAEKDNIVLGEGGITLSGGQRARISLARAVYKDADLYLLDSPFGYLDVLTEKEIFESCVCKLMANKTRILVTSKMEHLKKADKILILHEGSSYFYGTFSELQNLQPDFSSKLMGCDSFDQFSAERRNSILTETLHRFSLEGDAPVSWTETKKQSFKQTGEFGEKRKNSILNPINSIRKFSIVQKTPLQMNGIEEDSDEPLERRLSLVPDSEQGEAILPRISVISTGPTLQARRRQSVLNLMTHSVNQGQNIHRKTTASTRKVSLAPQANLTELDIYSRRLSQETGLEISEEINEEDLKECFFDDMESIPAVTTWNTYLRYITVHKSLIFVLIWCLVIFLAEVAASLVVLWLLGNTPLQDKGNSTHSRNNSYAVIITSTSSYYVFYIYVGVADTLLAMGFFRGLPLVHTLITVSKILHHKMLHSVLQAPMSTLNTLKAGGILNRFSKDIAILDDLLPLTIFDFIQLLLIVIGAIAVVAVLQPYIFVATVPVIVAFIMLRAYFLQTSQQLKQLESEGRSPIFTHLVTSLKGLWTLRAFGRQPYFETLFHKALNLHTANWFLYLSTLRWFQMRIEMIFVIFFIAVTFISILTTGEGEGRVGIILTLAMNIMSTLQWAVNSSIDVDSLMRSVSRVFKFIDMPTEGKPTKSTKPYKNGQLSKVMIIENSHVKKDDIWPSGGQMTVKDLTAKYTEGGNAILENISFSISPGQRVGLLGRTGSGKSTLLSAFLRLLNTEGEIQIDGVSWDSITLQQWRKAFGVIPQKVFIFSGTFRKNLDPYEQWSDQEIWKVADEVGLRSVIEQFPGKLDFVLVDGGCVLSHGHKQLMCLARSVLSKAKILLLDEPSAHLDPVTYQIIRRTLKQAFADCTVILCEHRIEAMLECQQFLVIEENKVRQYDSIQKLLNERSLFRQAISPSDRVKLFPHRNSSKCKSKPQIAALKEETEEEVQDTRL
protocol-summary: F508del-CFTR cell surface expression (corrector activity), DiscoveRx ß-galactosidase complementation chemiluminescence assay in recombinant U2OS cell line;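 also: U2OS cells co-expressing ProLink-tagged F508del-CFTR and a membrane-anchored enzyme acceptor, where more surface CFTR restores β-galactosidase activity measured by chemiluminescence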
experimental-context: EC50, F508del-CFTR cell surface expression, U2OS cells, 16h compound incubation; geomean values
pEC50: −log10 of the molar value.
metric: pEC50

compound	value
COc1cc2c(cn1)OC[C@@H](Cc1ccccc1)NC(=O)[C@@H]1CCCCN1C(=O)[C@H](CC(C)C)N(C)C(=O)C[C@@H](C(=O)NCCc1noc(C3CC3)n1)NC2=O (mixture of isomers)	6.31
Cc1cc2ccc3c(c2o1)C(=O)N[C@H](C(=O)NCCc1cc(C2CC2)no1)CC(=O)N(C)[C@@H](CC(C)C)C(=O)N(C)C1(CC1)C(=O)N[C@H](Cc1ccccc1)CO3	6.38
COc1cc(CCNC(=O)[C@@H]2CC(=O)N(C)[C@@H](CC(C)C)C(=O)N(C)[C@@H](CC(F)(F)F)C(=O)N[C@H](Cc3ccccc3)COc3cc(C)nc(OC)c3C(=O)N2)on1	6.20
CCOc1cccc(CCNC(=O)[C@@H]2CC(=O)N(C)[C@@H](CC(C)C)C(=O)N3CCN(C4CC4)C[C@H]3C(=O)N[C@H](Cc3ccccc3)COc3cnc4ccccc4c3C(=O)N2)c1	6.25
COc1nccc2c1C(=O)N[C@H](C(=O)NCCc1nc(C3CC3)no1)CC(=O)N(C)[C@@H](CC(C)C)C(=O)N1CCCC[C@@H]1C(=O)N[C@H](Cc1ccccc1)CO2	6.20
